biological target: PARP1 L713F-nLuc biosensor (HCT116) (UniProt P09874); assay: PARP1 L713F-nLuc/akaLuc ratio relative to DMSO control (biosensor stabilization) (fold change); higher = more PARP1 biosensor stabilization (target engagement / stabilizer), active = hit call of the paper; settings: stock concentration (mM; final µM = stock mM x 1): 10; 24 h
Sequence (P09874 whole entry L713F, looked up): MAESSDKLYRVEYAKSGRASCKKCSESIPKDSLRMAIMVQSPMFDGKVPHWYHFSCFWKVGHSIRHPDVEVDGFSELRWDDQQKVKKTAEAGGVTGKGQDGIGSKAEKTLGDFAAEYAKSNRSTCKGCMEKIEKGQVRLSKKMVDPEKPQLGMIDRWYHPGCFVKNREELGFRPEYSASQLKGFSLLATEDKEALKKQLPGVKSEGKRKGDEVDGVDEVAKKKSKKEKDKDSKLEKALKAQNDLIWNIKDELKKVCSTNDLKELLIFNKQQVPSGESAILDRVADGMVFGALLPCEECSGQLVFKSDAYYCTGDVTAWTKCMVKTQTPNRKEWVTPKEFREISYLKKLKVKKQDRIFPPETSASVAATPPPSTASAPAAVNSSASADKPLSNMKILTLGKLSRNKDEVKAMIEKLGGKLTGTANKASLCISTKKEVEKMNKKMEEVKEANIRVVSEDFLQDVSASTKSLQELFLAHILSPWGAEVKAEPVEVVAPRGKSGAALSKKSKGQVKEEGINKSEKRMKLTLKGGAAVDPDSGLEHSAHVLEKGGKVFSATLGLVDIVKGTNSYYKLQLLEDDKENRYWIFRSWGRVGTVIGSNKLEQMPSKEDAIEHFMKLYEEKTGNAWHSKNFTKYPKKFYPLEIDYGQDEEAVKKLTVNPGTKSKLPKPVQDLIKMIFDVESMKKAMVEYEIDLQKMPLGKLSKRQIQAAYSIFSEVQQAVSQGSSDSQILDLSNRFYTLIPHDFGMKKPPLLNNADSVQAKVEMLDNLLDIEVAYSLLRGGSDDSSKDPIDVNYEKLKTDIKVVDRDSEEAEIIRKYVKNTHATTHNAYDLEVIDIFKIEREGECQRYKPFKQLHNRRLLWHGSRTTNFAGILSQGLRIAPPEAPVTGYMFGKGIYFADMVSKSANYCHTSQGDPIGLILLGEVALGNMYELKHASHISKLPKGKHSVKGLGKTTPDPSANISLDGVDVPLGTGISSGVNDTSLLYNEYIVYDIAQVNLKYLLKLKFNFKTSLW
# cutoff 0.9 applies to PARP1 L713F-nLuc/akaLuc ratio; >= gives Y, < gives N

Compound	Study Target	Label Class
C/C(=N\NC(=O)c1cccc(S(=O)(=O)N2CCOCC2)c1)c1cc(Cl)ccc1O	PARP1 L713F-nLuc biosensor (HCT116) (UniProt P09874)	N
Cc1cc(C)nc(SCC(=O)Nc2ncc(Cc3cccc(OCc4cn(Cc5ccccc5)nn4)c3)s2)n1	PARP1 L713F-nLuc biosensor (HCT116) (UniProt P09874)	N
CC(=O)O[C@@]12CO[C@@H]1C[C@H](O)[C@@]1(C)C(=O)[C@H](O)C3=C(C)[C@@H](OC(=O)[C@H](O)[C@@H](NC(=O)OC(C)(C)C)c4ccccc4)C[C@@](O)([C@@H](OC(=O)c4ccccc4)[C@H]21)C3(C)C [Docetaxel]	PARP1 L713F-nLuc biosensor (HCT116) (UniProt P09874)	Y
CC(CC(=O)C[C@@H](C)[C@H]1CC(=O)[C@@]2(C)C3=C(C(=O)C[C@]12C)[C@@]1(C)CCC(=O)C(C)(C)[C@@H]1C[C@@H]3O)C(=O)O (some centres not stated) [Ganoderic acid D]	PARP1 L713F-nLuc biosensor (HCT116) (UniProt P09874)	Y
CC(C)=CC(=O)O[C@H]1Cc2cc3ccc(=O)oc3cc2OC1(C)C [Decursin]	PARP1 L713F-nLuc biosensor (HCT116) (UniProt P09874)	N
Cc1cc(Nc2nc(CC3(C(=O)O)CCN(C(=O)c4cccc(Cl)c4Cl)CC3)ccc2F)n[nH]1	PARP1 L713F-nLuc biosensor (HCT116) (UniProt P09874)	Y
CCCOc1ccn2c(C(C)=O)cc(-c3cccc(OC)c3)c2c1	PARP1 L713F-nLuc biosensor (HCT116) (UniProt P09874)	Y

From: the supplement of paper PMC11624193
